# Tested on: Saccharomyces cerevisiae
# Assay explanation: protein stability index of tFT-peptide fusion (C-terminal peptide) (PSI (0-1 scale)); higher = more stable (slower turnover);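 also: PSI is a weighted mean of sequencing reads over stability bins, variants kept only with over 10 reads, mCherry proximal and sfGFP distal, peptide attached via GGGS linker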
# Condition context: genetic background: cdc53-1; temperature: 37 C
protein stability index vs 0.6: at or above is yes (1), below is no (0).

Seq | Label
RWRLWVGWGVVG | yes (1)
PSTLVITVVITK | no (0)
SGPNASRFYAPI | yes (1)
LYCGLIFFLRGV | yes (1)
SCCGCGFGLLFC | yes (1)
FCRLCYLLLFCC | no (0)
VCLFRLVVFFPV | no (0)
CFFPLFLCTAFC | no (0)
CACAVPFLLLFF | no (0)
ILRKTAFRLRVL | yes (1)
YYLVKCVYLRTT | no (0)
LFLFVGCSVRRL | no (0)
LCFVCLWGYLGV | no (0)
GGVVGGVGVYDG | yes (1)
VVLWWWVVARDL | no (0)
RFYLFLFFVRST | no (0)
RLGIRCLYLRFI | no (0)
GLLVFRCINLRC | no (0)
LFLLYVLVSLFV | no (0)
VTLLCRFFMLVF | no (0)
HCNRRNKIYWYS | yes (1)
SPPPLFLIVLHL | no (0)
GSGCLFNRWRIL | yes (1)
LAISTIQMFKRI | yes (1)
FASFLFFCYIIF | no (0)
CRRLCGWLFVCV | no (0)
FFFFSVHLSFLD | no (0)
VDFCLLFLLLLV | no (0)
GMMLLRFIIRWY | no (0)
IWWFKELRVCRV | no (0)
FLPLFFLPCLSV | no (0)
TFLFPLPFLFFI | no (0)
CLVKIVIFFLFS | no (0)
RPGRWFCFLYCV | no (0)
QVGRPRVGFSRR | yes (1)
RWELASKCRLCV | yes (1)
VPGPSPPRFTQR | yes (1)
PACPPLPPRSPS | yes (1)
WLALSFFSFFFC | yes (1)
WAIVVLVCFLRL | no (0)
MIQPRLANIIIS | yes (1)
IFFSLFFFFLCN | no (0)
AFRRFLLYCRFI | no (0)
NFVVYHVAIRVP | no (0)
GALVVSWAEVLC | no (0)
LAEHIFLVLDHG | no (0)
TVYMVIRVIVWG | no (0)
DFVYFPPIPVSS | no (0)
LLILIVNLRRIG | no (0)
WGFSVRFVLSVF | no (0)
VCLFFFGYWCCL | no (0)
QLGGKVGNCHVV | yes (1)
RRFKKTEIIKNN | yes (1)
PPPSRRLTLRLA | yes (1)
RGRLKSSYFILF | yes (1)
GPFVRSALIFIF | no (0)
CVYGILLLVDVR | no (0)
GFSSRWLMQYMV | yes (1)
RAFFLLYCTLWA | no (0)
WCCCVSGFVWWM | yes (1)
RGWNGFWVVVVW | no (0)

----------
# System: Saccharomyces cerevisiae
# Assay explanation: protein stability index of tFT-peptide fusion (C-terminal peptide) (PSI (0-1 scale)); higher = more stable (slower turnover)
# Condition context: genetic background: wild type; temperature: 30 C
Overview of recorded protein stability index for various sequences
Measurement type: protein stability index

Seq | Target system | Measurement type | Test value
INKKKKKKSKQK | Saccharomyces cerevisiae | protein stability index | 0.7
GQRTKSHSRGGP | Saccharomyces cerevisiae | protein stability index | 0.648
YYLVKCVYLRTT | Saccharomyces cerevisiae | protein stability index | 0.254
AVRPGEAGCAGL | Saccharomyces cerevisiae | protein stability index | 0.664
GPVRIDSPFKSA | Saccharomyces cerevisiae | protein stability index | 0.733
LGATYSVQLYVS | Saccharomyces cerevisiae | protein stability index | 0.131
SPRKTAVIGGTT | Saccharomyces cerevisiae | protein stability index | 0.688
PLSHSPPAPSSP | Saccharomyces cerevisiae | protein stability index | 0.658
VLGCSVIADSCR | Saccharomyces cerevisiae | protein stability index | 0.637
DSIVWVGVTYFL | Saccharomyces cerevisiae | protein stability index | 0.553
GARGLVGHWRRG | Saccharomyces cerevisiae | protein stability index | 0.615
PPLPLPPSRSPA | Saccharomyces cerevisiae | protein stability index | 0.686
WGLCWFGCLWGR | Saccharomyces cerevisiae | protein stability index | 0.692

----------
# Test system: Saccharomyces cerevisiae
# Assay explanation: protein stability index of tFT-peptide fusion (C-terminal peptide) (PSI (0-1 scale)); higher = more stable (slower turnover)
# Condition context: genetic background: wild type; temperature: 30 C
Measurement type: protein stability index

Seq | Measurement type | Test value
WVGGGGGPSGVV | protein stability index | 0.733
FLSPPPFLALLP | protein stability index | 0.723
STSWDDLLYHSG | protein stability index | 0.716
SLIFRVGKFKSL | protein stability index | 0.137
LSYRFVFRFLLF | protein stability index | 0.421
KDGGRLRVDQWI | protein stability index | 0.706
ELNSGLLRSKET | protein stability index | 0.661
PQIIFVSRASYL | protein stability index | 0.681
LPIARLPPPPPR | protein stability index | 0.707
DFSLQILALCYF | protein stability index | 0.558
VLFEARFSLRQS | protein stability index | 0.677
AGRRVPVMMYGS | protein stability index | 0.691
GGGGGSMDLRDR | protein stability index | 0.697
TRRFGSIINWVG | protein stability index | 0.59
CGLRVVGVVGAP | protein stability index | 0.712
LPTPSLPPLPFH | protein stability index | 0.623
SNWGLYGCRLYP | protein stability index | 0.759
CFVSFFWRCFFG | protein stability index | 0.515
LFSHGFLYILGG | protein stability index | 0.696
SEGKQYITGRWK | protein stability index | 0.702
SPRLRSRQVALS | protein stability index | 0.556
PPLPPLPSPSPP | protein stability index | 0.721
QYLKTKKEGKEF | protein stability index | 0.698
GLFAPVGLGFGL | protein stability index | 0.724
SPSSSPSPFPVP | protein stability index | 0.731
STTQFTLSATRI | protein stability index | 0.717
HRRCPVPRGSSP | protein stability index | 0.704
LSMPRVHTRHRP | protein stability index | 0.708
GEKSSDDYEVKD | protein stability index | 0.655
SFSLAPSPPLLP | protein stability index | 0.721
KRGKNKKRKQKK | protein stability index | 0.716
DSSFPKSVSKQA | protein stability index | 0.679
DGGIVTVSLGWC | protein stability index | 0.662
GRGEIQDRRCRG | protein stability index | 0.668
RPTPLSTPPPLG | protein stability index | 0.644
VPAPLPRTSPPS | protein stability index | 0.673
VTTKMQVAGSRK | protein stability index | 0.638
CGGKTEKRKKYT | protein stability index | 0.606
FVSFTVSFSVVV | protein stability index | 0.379
LLVLPFFSLSRF | protein stability index | 0.816
SHVMLCLHFLFR | protein stability index | 0.498
GGVLSAGSWSGG | protein stability index | 0.665
LRVQFFFLAGCT | protein stability index | 0.584
LVWGGVWGAPCR | protein stability index | 0.774
PPPNPPPALPPL | protein stability index | 0.664
LSPGLPRLLVKM | protein stability index | 0.669
RAVVTGEGESGG | protein stability index | 0.624
LPPCGQIVSLDT | protein stability index | 0.68
PLLASRFLQVGF | protein stability index | 0.678
LLPLPSFSPCSL | protein stability index | 0.701
SSNSRPTGSGGS | protein stability index | 0.694
VRRSNKTIKRKK | protein stability index | 0.746
CRASGGVSCGAS | protein stability index | 0.639
WGRTRGDHGGKK | protein stability index | 0.686
KLVGFRPHAWWF | protein stability index | 0.701
GSRGHLGRGGPG | protein stability index | 0.727
SFFCTRVLWVFQ | protein stability index | 0.157
EGLPGGLRGCLR | protein stability index | 0.687
FYLLTASVCGMF | protein stability index | 0.53
ITSWCNVFLGRA | protein stability index | 0.71

----------
# Test system: Saccharomyces cerevisiae
# Assay explanation: protein stability index of tFT-peptide fusion (C-terminal peptide) (PSI (0-1 scale)); higher = more stable (slower turnover)
# Condition context: genetic background: wild type; temperature: 30 C
Measurement type: protein stability index

Seq | Target system | Measurement type | Test value
DDCFCGRFWVVV | Saccharomyces cerevisiae | protein stability index | 0.679
LSRPPSRPLPLP | Saccharomyces cerevisiae | protein stability index | 0.677
SLEFISIAFLDL | Saccharomyces cerevisiae | protein stability index | 0.685

These data points were gathered from the supplement of paper PMC10724198.
